So I've got a bunch of compounds here, and I need their selectivity ratio values.
# Assay info: Selectivity index, ratio of IC50 for human MCF10A cells to IC50 for human SK-BR-3 cells
# Format: toxicity
# Experimental conditions: MCF10A cells versus SK-BR-3 cells, read-out: Ratio IC50
// keep it numeric: no unit symbol after the value

# input Name the recorded selectivity ratio of the compound listed here: CC[C@@H](C(=O)[C@@H](C)[C@@H](O)[C@H](C)[C@@H]1O[C@@H]([C@@H](CC)C(=O)OCC(F)(F)F)CC[C@@H]1C)[C@H]1O[C@]2(C=C[C@@H](O)[C@]3(CC[C@@](C)([C@H]4CC[C@](O)(CC)[C@H](C)O4)O3)O2)[C@H](C)C[C@@H]1C
# output 2.5

# input Look up and report measured selectivity ratio for this entry: C#CCOC(=O)[C@H](CC)[C@H]1CC[C@H](C)[C@H]([C@@H](C)[C@H](O)[C@H](C)C(=O)[C@H](CC)[C@H]2O[C@]3(C=C[C@@H](O)[C@]4(CC[C@@](C)([C@H]5CC[C@](O)(CC)[C@H](C)O5)O4)O3)[C@H](C)C[C@@H]2C)O1
# output 6.4

----------
# Assay info: Resistance index, ratio of IC50 for human LoVo/DX cells to IC50 for human LoVo cells
# Type: functional
Experimental readout: Ratio IC50

# input Identify measured Ratio IC50 associated with C#CCOC(=O)[C@H](CC)[C@H]1CC[C@H](C)[C@H]([C@@H](C)[C@H](O)[C@H](C)C(=O)[C@H](CC)[C@H]2O[C@]3(C=C[C@@H](OC(C)=O)[C@]4(CC[C@@](C)([C@H]5CC[C@](O)(CC)[C@H](C)O5)O4)O3)[C@H](C)C[C@@H]2C)O1
# output 0.43

# input Assign Ratio IC50 to the following record: CC[C@@H](C(=O)[C@@H](C)[C@@H](O)[C@H](C)[C@@H]1O[C@@H]([C@@H](CC)C(=O)NCCc2ccc(F)cc2)CC[C@@H]1C)[C@H]1O[C@]2(C=C[C@@H](OC(C)=O)[C@]3(CC[C@@](C)([C@H]4CC[C@](O)(CC)[C@H](C)O4)O3)O2)[C@H](C)C[C@@H]1C
# output 0.88

# input Report Ratio IC50 for CC[C@@H](C(=O)[C@@H](C)[C@@H](O)[C@H](C)[C@@H]1O[C@@H]([C@@H](CC)C(=O)OCC(F)(F)F)CC[C@@H]1C)[C@H]1O[C@]2(C=C[C@@H](OC(C)=O)[C@]3(CC[C@@](C)([C@H]4CC[C@](O)(CC)[C@H](C)O4)O3)O2)[C@H](C)C[C@@H]1C
# output 2.1

# input Input CC[C@@H](C(=O)[C@@H](C)[C@@H](O)[C@H](C)[C@@H]1O[C@@H]([C@@H](CC)C(=O)OCC(F)(F)F)CC[C@@H]1C)[C@H]1O[C@]2(C=C[C@@H](O)[C@]3(CC[C@@](C)([C@H]4CC[C@](O)(CC)[C@H](C)O4)O3)O2)[C@H](C)C[C@@H]1C , output reported Ratio IC50.
# output 1

----------
# Tested on: MCF-10A
# Assay info: Antiproliferative activity against human MCF10A cells at 100 ug/ml after 72 hrs by SRB assay relative to control
# Format: cell-based
Experimental readout: Activity

C#CCOC(=O)[C@H](CC)[C@H]1CC[C@H](C)[C@H]([C@@H](C)[C@H](O)[C@H](C)C(=O)[C@H](CC)[C@H]2O[C@]3(C=C[C@@H](OC(C)=O)[C@]4(CC[C@@](C)([C@H]5CC[C@](O)(CC)[C@H](C)O5)O4)O3)[C@H](C)C[C@@H]2C)O1 :: <= 50%
CCOC(=O)O[C@@H]1C=C[C@]2(O[C@H]([C@@H](CC)C(=O)[C@@H](C)[C@@H](O)[C@H](C)[C@@H]3O[C@@H]([C@@H](CC)C(=O)NCCc4ccc(F)cc4)CC[C@@H]3C)[C@@H](C)C[C@H]2C)O[C@@]12CC[C@@](C)([C@H]1CC[C@](O)(CC)[C@H](C)O1)O2 :: <= 50%
CCOC(=O)O[C@@H]1C=C[C@]2(O[C@H]([C@@H](CC)C(=O)[C@@H](C)[C@@H](O)[C@H](C)[C@@H]3O[C@@H]([C@@H](CC)C(=O)OCC(F)(F)F)CC[C@@H]3C)[C@@H](C)C[C@H]2C)O[C@@]12CC[C@@](C)([C@H]1CC[C@](O)(CC)[C@H](C)O1)O2 :: <= 50%
C#CCOC(=O)[C@H](CC)[C@H]1CC[C@H](C)[C@H]([C@@H](C)[C@H](O)[C@H](C)C(=O)[C@H](CC)[C@H]2O[C@]3(C=C[C@@H](OC(=O)NCC)[C@]4(CC[C@@](C)([C@H]5CC[C@](O)(CC)[C@H](C)O5)O4)O3)[C@H](C)C[C@@H]2C)O1 :: <= 50%
